Tested on: E. coli WT DSM-1116
Test: MIC, microbroth dilution susceptibility assay
Format: cell-based
Settings: Escherichia coli, DSM1116; small panel, Tables 1a/1b; no visual growth after approx. 16 h; read-out: MIC E. coli WT DSM-1116
Assignment: determine reported MIC for the given compounds.
Could you give me the number in µg/mL? Just the number is fine.

Lab note: CC(C)Oc1c(NC(=O)c2ccc(NC(=O)[C@H](CC(N)=O)NC(=O)c3ccc(NC(=O)c4ccc(NC(=O)c5ccc([N+](=O)[O-])cc5)cc4)cc3)cc2)ccc(C(=O)Nc2ccc(C(=O)O)cc2)c1O gave MIC of 2

Lab note: CC(C)Oc1c(NC(=O)c2ccc(NC(=O)c3ccc(NC(=O)[C@H](CC(N)=O)NC(=O)c4ccc(NC(=O)c5ccc([N+](=O)[O-])cc5)cc4)cc3)c(OC(C)C)c2O)ccc(C(=O)O)c1O gave MIC of 0.5

Lab note: CC(C)Oc1c(NC(=O)c2ccc(NC(=O)c3ccc(NC(=O)[C@H](CC(N)=O)NC(=O)c4ccc(NC(=O)c5ccc(C#N)cc5)cc4)cc3)c(OC(C)C)c2O)ccc(C(=O)O)c1O gave MIC of 0.25

Lab note: CC(C)Oc1c(NC(=O)c2ccc(NC(=O)[C@H](CC(N)=O)NC(=O)c3ccc(NC(=O)c4ccc([N+](=O)[O-])cc4)cc3)cc2)ccc(C(=O)Nc2ccc(C(N)=O)cc2)c1O gave MIC of 32

Lab note: CC(C)Oc1c(NC(=O)c2ccc(NC(=O)[C@H](CC(N)=O)NC(=O)c3ccc(NC(=O)c4ccc(S(C)(=O)=O)cc4)cc3)cc2)ccc(C(=O)Nc2ccc(C(=O)O)cc2)c1O gave MIC of 2
